Tested on: pSTAT6 in BEAS-2B human cell line
Assay: Inhibition of IL-13 induced pSTAT6 in BEAS
Format: cell-based
Conditions: Homo sapiens, BEAS-2B, 0.5 h; IL-13 trigger, 30 min; parent compound
pIC50: −log10 of the molar value.
readout.type: pIC50

compound="CCC(C)OC(=O)C1CCN(CCNC(=O)c2nn(-c3cc4c(cc3OC)NCCO4)c3cc(-c4cnn5cccnc45)ncc23)CC1 (stereo not drawn) [Example 10]" readout_type=pIC50 value="≥ 8.30"
compound="COCC(C)(C)OC(=O)C1CCN(CCNC(=O)c2nn(-c3cc4c(cc3OC)NCCO4)c3cc(-c4cnn5cccnc45)ncc23)CC1 [Example 5]" readout_type=pIC50 value="≥ 8.30"
compound="CCOC(=O)[C@@H]1CCN(CCNC(=O)c2nn(-c3cc4c(cc3OC)NCCO4)c3cc(-c4cnn5cccnc45)ncc23)C1 [Example 43]" readout_type=pIC50 value="7.30 to 8.30"
compound="COc1cc2c(cc1-n1nc(C(=O)NCCN3CCC(C(=O)OCC(C)(C)CO)CC3)c3cnc(-c4cnn5cccnc45)cc31)OCCN2 [Example 15]" readout_type=pIC50 value="≥ 8.30"
compound="COc1cc2c(cc1-n1nc(C(=O)NCCN3CCC(C(=O)OCC(C)(C)N(C)C)CC3)c3cnc(-c4cnn5cccnc45)cc31)OCCN2 [Example 20]" readout_type=pIC50 value="7.30 to 8.30"
compound="CCOC(=O)C1CCN(CCNC(=O)c2nn(-c3cc4c(cc3OC)NCCS4)c3cc(-c4cnn5cccnc45)ncc23)CC1 [Example 1]" readout_type=pIC50 value="≥ 8.30"
